// reported protein stability index for each item listed
B1: SERPINB5 (parent)
chain: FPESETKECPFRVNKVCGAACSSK

# Variants of: B1
# assay-notes: protein stability index of a GFP-peptide fusion (GPS, HEK-293T) (PSI 1-6); higher = more stable;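 also: lentivirally expressed fusions sorted by FACS into six bins by GFP to DsRed ratio, PSI derived from sequencing read proportions per bin multiplied by bin number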
# test-parameters: c terminus: a fixed tail appended

variant-code: K15G
protein stability index: 2.22

variant-code: E3T
protein stability index: 1.43

variant-code: A20M
protein stability index: 2.01

variant-code: F1H
protein stability index: 4.54

variant-code: T6A
protein stability index: 2.68

variant-code: S22M
protein stability index: 2.4

variant-code: P2M
protein stability index: 3.77

variant-code: S22Q
protein stability index: 2.66

variant-code: T6L
protein stability index: 2.1

variant-code: V13L
protein stability index: 3.19

variant-code: E3M
protein stability index: 1.45

variant-code: E5H
protein stability index: 1.4

variant-code: C21A
protein stability index: 2.76

variant-code: C9Q
protein stability index: 4.03

variant-code: R12F
protein stability index: 3.56

variant-code: V16Y
protein stability index: 2.14

variant-code: F11N
protein stability index: 5.12

variant-code: F11D
protein stability index: 5.06

variant-code: A20Q
protein stability index: 2.09

variant-code: S22C
protein stability index: 2.27

variant-code: K7L
protein stability index: 2.5

variant-code: C21N
protein stability index: 2.44

variant-code: K7Y
protein stability index: 1.97

variant-code: K7M
protein stability index: 2.5

variant-code: E3R
protein stability index: 1.71

variant-code: G18Q
protein stability index: 2.66

variant-code: S23Y
protein stability index: 2.29

variant-code: K24G
protein stability index: 2.57

variant-code: V16H
protein stability index: 2.17

variant-code: S22P
protein stability index: 2.67

variant-code: P2K
protein stability index: 4.63

variant-code: S4P
protein stability index: 3.49

variant-code: A20R
protein stability index: 2.53

variant-code: E8G
protein stability index: 1.9

variant-code: K15N
protein stability index: 2.24

variant-code: T6Y
protein stability index: 2.28

variant-code: P10L
protein stability index: 2.14

variant-code: C9T
protein stability index: 2.64

variant-code: E3N
protein stability index: 2.4

variant-code: K24I
protein stability index: 1.88
